B1: NETO1 (parent)
chain: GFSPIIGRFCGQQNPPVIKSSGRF

Variants of: B1
Assay: protein stability index of a GFP-peptide fusion (GPS, HEK-293T) (PSI 1-6); higher = more stable;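 also: lentivirally expressed fusions sorted by FACS into six bins by GFP to DsRed ratio, PSI derived from sequencing read proportions per bin multiplied by bin number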
Details: c terminus: a fixed tail appended
observation_type: protein stability index

V17Y	2.12
P16F	1.85
S21L	1.75
Q12L	1.75
S20W	1.99
F2V	2.13

**Query** Can you look up the measured protein stability index of `I5M` for me?
**Result** 2.19

**Query** // protein stability index lookup, key: `G7F`
**Result** 2.03

**Query** Give its protein stability index value. Item: `V17H`
**Result** 2.08

**Query** Tell me the measured protein stability index of `F9M` , please.
**Result** 2.17

**Query** Fill in: protein stability index of `Q12W` is ___
**Result** 1.72

**Query** // lookup protein stability index for `Q12Y`
**Result** 2.01

**Query** Please report the recorded protein stability index for `G7D` .
**Result** 2.66

**Query** I am curious: what protein stability index value has been reported for `I5Y` ?
**Result** 2.36

**Query** Could you tell me which protein stability index is on file for `Q13D` ?
**Result** 1.96

**Query** GET /values?readout=protein stability index&item= `F9H`
**Result** 1.69

All values here come from the supplement of paper PMC10567573.
